# Test system: K. pneumoniae MP-546
# method_description: Broth dilution MIC determination (CLSI), K. pneumoniae MP-546
# Format: cell-based
# run_conditions: Klebsiella pneumoniae, MP546; strain MP-546, broth dilution
Each item that follows carries a reported MIC.

Completed entries (count: 3):
CCN(CC)[C@H](C)C(=O)N1CC([C@H]2COC(=O)C(C)(C)C(=O)[C@H](C)[C@@H](O[C@@H]3O[C@H](C)C[C@H](N(C)C)[C@H]3O)[C@](C)(OC)C[C@@H](C)CN2C)C1 [Compound 74] : 4 to 32 µg/mL
CO[C@]1(C)C[C@@H](C)CN(C)[C@H](C2CN(C(=O)CN3CCC3)C2)COC(=O)C(C)(C)C(=O)[C@H](C)[C@H]1O[C@@H]1O[C@H](C)C[C@H](N(C)C)[C@H]1O [Compound 14] : > 32 µg/mL
CO[C@]1(C)C[C@@H](C)CN(C)[C@H](C2CCN(C(=O)CNCC(C)C)CC2)COC(=O)C(C)C(=O)[C@H](C)[C@H]1O[C@@H]1O[C@H](C)C[C@H](N(C)C)[C@H]1O (stereo partly shown) [Compound 107] : 4 to 32 µg/mL

Query MIC on K. pneumoniae MP-546 for CO[C@]1(C)C[C@@H](C)CN(C)[C@H](C2CC3CCC(C2)N3CC(C)C)COC(=O)C(C)(C)C(=O)[C@H](C)[C@H]1O[C@@H]1O[C@H](C)C[C@H](N(C)C)[C@H]1O (stereo partly shown) [Compound 87]
4 to 32 µg/mL

Under K. pneumoniae MP-546: MIC value of CO[C@]1(C)C[C@@H](C)CN(C)[C@H]([C@H]2CCCN(CC(C)C)C2)COC(=O)C(C)(C)C(=O)[C@H](C)[C@H]1O[C@@H]1O[C@H](C)C[C@H](N(C)C)[C@H]1O [Compound 39] ?
4 to 32 µg/mL

Identify the measured MIC of CO[C@]1(C)C[C@@H](C)CN(C)[C@@H](C2CCN(C)CC2)COC(=O)C(C)(C)C(=O)[C@H](C)[C@H]1O[C@@H]1O[C@H](C)C[C@H](N(C)C)[C@H]1O [Compound 64] for K. pneumoniae MP-546.
< 4 µg/mL

Please provide the recorded MIC for CO[C@]1(C)C[C@@H](C)CN(C)[C@H](C2CN(CC(C)(C)C)C2)COC(=O)C(C)(C)C(=O)[C@H](C)[C@H]1O[C@@H]1O[C@H](C)C[C@H](N(C)C)[C@H]1O [Compound 114] , tested on K. pneumoniae MP-546.
< 4 µg/mL

Record CO[C@]1(C)C[C@@H](C)CN(C)[C@H](C2CN(CC3CCCO3)C2)COC(=O)C(C)(C)C(=O)[C@H](C)[C@H]1O[C@@H]1O[C@H](C)C[C@H](N(C)C)[C@H]1O (stereo partly shown) [Compound 164] : what is its MIC with K. pneumoniae MP-546?
< 4 µg/mL

Observed MIC on K. pneumoniae MP-546 for CO[C@]1(C)C[C@@H](C)CN(C)[C@H](C2CN(C(=O)CN(C)C)C2)COC(=O)C(C)(C)C(=O)[C@H](C)[C@H]1O[C@@H]1O[C@H](C)C[C@H](N(C)C)[C@H]1O [Compound 28] , please.
< 4 µg/mL

For K. pneumoniae MP-546, provide MIC of CO[C@]1(C)C[C@@H](C)CN(C)[C@](C)(C2CCN(C(C)C)CC2)COC(=O)C(C)(C)C(=O)[C@H](C)[C@H]1O[C@@H]1O[C@H](C)C[C@H](N(C)C)[C@H]1O [Compound 158] please.
< 4 µg/mL
